target: T1, CD3ε homodimer protein (human, UniProt P07766 23-126, limits assumed, sulfo-tag or biotin label in some ECL assays); test: SPR, CD3ε homodimer on chip;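 further: biacore SPR with antibody variants flowed as analyte over amine-coupled CD3ε homodimer on a CM chip, bound amount of each single-residue H chain variant over that of parent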
T1 construct: also called human CD3ε homodimer protein; CD3 (CD3ε)
T1 sequence (P07766 23-126 limits assumed): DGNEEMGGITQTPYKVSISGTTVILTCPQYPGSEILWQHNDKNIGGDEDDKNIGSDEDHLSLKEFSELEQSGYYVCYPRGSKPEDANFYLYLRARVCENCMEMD
Label true when ratio of amounts bound vs CE115HA000 is strictly below 0.4; otherwise label false.

// query Criterion: ratio of amounts bound vs CE115HA000 strictly below 0.4. Is it met by CE115HA000 Y100D (antibody, name in Kabat numbering, V domains shown) VH: QVQLVESGGGVVQPGRSLRLSCAASGFTFSNAWMHWVRQAPGKGLEWVAQIKAKSNNYATYYAESVKGRFTISRDDSKNSLYLQMNSLKTEDTAVYYCRYVHYGADYGVDAWGQGTTVTVSS VL: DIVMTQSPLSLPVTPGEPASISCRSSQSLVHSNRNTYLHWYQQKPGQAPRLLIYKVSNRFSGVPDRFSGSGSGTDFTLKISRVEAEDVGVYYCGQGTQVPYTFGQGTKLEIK ?
// result false

// query Criterion: ratio of amounts bound vs CE115HA000 strictly below 0.4. Is it met by CE115HA000 W33L (antibody, name in Kabat numbering, V domains shown) VH: QVQLVESGGGVVQPGRSLRLSCAASGFTFSNALMHWVRQAPGKGLEWVAQIKAKSNNYATYYAESVKGRFTISRDDSKNSLYLQMNSLKTEDTAVYYCRYVHYGAYYGVDAWGQGTTVTVSS VL: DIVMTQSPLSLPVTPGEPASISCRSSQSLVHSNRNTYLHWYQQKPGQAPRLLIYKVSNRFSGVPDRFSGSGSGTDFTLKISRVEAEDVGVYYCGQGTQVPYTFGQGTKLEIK ?
// result true

// query Criterion: ratio of amounts bound vs CE115HA000 strictly below 0.4. Is it met by CE115HA000 G98D (antibody, name in Kabat numbering, V domains shown) VH: QVQLVESGGGVVQPGRSLRLSCAASGFTFSNAWMHWVRQAPGKGLEWVAQIKAKSNNYATYYAESVKGRFTISRDDSKNSLYLQMNSLKTEDTAVYYCRYVHYDAYYGVDAWGQGTTVTVSS VL: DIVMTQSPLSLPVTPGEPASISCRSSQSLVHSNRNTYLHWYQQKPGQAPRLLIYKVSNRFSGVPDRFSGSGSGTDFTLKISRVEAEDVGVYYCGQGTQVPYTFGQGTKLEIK ?
// result true

// query Criterion: ratio of amounts bound vs CE115HA000 strictly below 0.4. Is it met by CE115HA000 H96Y (antibody, name in Kabat numbering, V domains shown) VH: QVQLVESGGGVVQPGRSLRLSCAASGFTFSNAWMHWVRQAPGKGLEWVAQIKAKSNNYATYYAESVKGRFTISRDDSKNSLYLQMNSLKTEDTAVYYCRYVYYGAYYGVDAWGQGTTVTVSS VL: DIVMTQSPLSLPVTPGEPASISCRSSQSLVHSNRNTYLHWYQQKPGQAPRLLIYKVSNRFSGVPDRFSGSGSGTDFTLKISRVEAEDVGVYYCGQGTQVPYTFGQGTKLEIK ?
// result true

// query Criterion: ratio of amounts bound vs CE115HA000 strictly below 0.4. Is it met by CE115HA000 Y100aG (antibody, name in Kabat numbering, V domains shown) VH: QVQLVESGGGVVQPGRSLRLSCAASGFTFSNAWMHWVRQAPGKGLEWVAQIKAKSNNYATYYAESVKGRFTISRDDSKNSLYLQMNSLKTEDTAVYYCRYVHYGAYGGVDAWGQGTTVTVSS VL: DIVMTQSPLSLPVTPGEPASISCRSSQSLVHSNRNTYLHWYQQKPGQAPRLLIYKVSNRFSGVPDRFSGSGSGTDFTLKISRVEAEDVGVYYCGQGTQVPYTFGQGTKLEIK ?
// result false

// query Criterion: ratio of amounts bound vs CE115HA000 strictly below 0.4. Is it met by CE115HA000 H96Q (antibody, name in Kabat numbering, V domains shown) VH: QVQLVESGGGVVQPGRSLRLSCAASGFTFSNAWMHWVRQAPGKGLEWVAQIKAKSNNYATYYAESVKGRFTISRDDSKNSLYLQMNSLKTEDTAVYYCRYVQYGAYYGVDAWGQGTTVTVSS VL: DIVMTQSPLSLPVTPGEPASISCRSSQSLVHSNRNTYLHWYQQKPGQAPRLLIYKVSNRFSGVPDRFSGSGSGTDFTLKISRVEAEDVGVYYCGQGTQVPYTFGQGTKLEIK ?
// result false

// query Criterion: ratio of amounts bound vs CE115HA000 strictly below 0.4. Is it met by CE115HA000 Y55S (antibody, name in Kabat numbering, V domains shown) VH: QVQLVESGGGVVQPGRSLRLSCAASGFTFSNAWMHWVRQAPGKGLEWVAQIKAKSNNSATYYAESVKGRFTISRDDSKNSLYLQMNSLKTEDTAVYYCRYVHYGAYYGVDAWGQGTTVTVSS VL: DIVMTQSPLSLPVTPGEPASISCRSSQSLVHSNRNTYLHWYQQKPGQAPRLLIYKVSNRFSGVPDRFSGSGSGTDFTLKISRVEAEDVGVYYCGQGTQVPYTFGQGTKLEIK ?
// result true

// query Criterion: ratio of amounts bound vs CE115HA000 strictly below 0.4. Is it met by CE115HA000 S30D (antibody, name in Kabat numbering, V domains shown) VH: QVQLVESGGGVVQPGRSLRLSCAASGFTFDNAWMHWVRQAPGKGLEWVAQIKAKSNNYATYYAESVKGRFTISRDDSKNSLYLQMNSLKTEDTAVYYCRYVHYGAYYGVDAWGQGTTVTVSS VL: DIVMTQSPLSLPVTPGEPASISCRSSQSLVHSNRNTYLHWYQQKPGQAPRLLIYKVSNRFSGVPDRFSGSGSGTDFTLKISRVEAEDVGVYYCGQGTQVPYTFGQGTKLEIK ?
// result false

// query Criterion: ratio of amounts bound vs CE115HA000 strictly below 0.4. Is it met by CE115HA000 N31D (antibody, name in Kabat numbering, V domains shown) VH: QVQLVESGGGVVQPGRSLRLSCAASGFTFSDAWMHWVRQAPGKGLEWVAQIKAKSNNYATYYAESVKGRFTISRDDSKNSLYLQMNSLKTEDTAVYYCRYVHYGAYYGVDAWGQGTTVTVSS VL: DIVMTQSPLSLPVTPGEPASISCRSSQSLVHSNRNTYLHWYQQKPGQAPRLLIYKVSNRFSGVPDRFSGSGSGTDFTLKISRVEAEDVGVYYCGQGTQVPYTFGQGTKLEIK ?
// result true

// query Criterion: ratio of amounts bound vs CE115HA000 strictly below 0.4. Is it met by CE115HA000 A99S (antibody, name in Kabat numbering, V domains shown) VH: QVQLVESGGGVVQPGRSLRLSCAASGFTFSNAWMHWVRQAPGKGLEWVAQIKAKSNNYATYYAESVKGRFTISRDDSKNSLYLQMNSLKTEDTAVYYCRYVHYGSYYGVDAWGQGTTVTVSS VL: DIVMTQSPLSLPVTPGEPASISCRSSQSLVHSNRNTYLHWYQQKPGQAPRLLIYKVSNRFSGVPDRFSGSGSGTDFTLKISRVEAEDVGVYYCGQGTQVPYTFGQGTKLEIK ?
// result false

Reference source for all entries: patent US20220040297A1
